Hey, just so you know, these numbers are from the RNAGym collection of RNA variant scans (doi:10.7554/elife.80360).

B1: CPEB3 Ribozyme (parent)
chain: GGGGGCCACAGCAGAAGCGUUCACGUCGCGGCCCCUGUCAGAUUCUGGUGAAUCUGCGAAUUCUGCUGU

# Variants of: B1
# experimentalDetails: self-cleavage, relative activity (ratio to wild type); higher = more cleavage; co-transcriptional
We begin with a simple list: items and their reported self-cleavage.
Write the value as a bare number.

Field: example entries. Status: answers known.
C54A G68A    0.955
U43C C57G    0.308
G56U A60G    0.712
G37C U38C    0.201
A8G G68A    0.912

# evaluate next
Quick note, self-cleavage for G25A U53C landed at 0.206
